Catalogue of binders with associated binding ratio (Analyte 2 / Analyte 1)
Target: T1, His-tagged human IGF1R protein (ACRO Biosystems Inc., Cat #: IGR-H5229) (human, UniProt P08069 31-932)
T1 construct: Bought protein; also called hIGF1R-His; not shown: His tag
T1 sequence (P08069 31-932): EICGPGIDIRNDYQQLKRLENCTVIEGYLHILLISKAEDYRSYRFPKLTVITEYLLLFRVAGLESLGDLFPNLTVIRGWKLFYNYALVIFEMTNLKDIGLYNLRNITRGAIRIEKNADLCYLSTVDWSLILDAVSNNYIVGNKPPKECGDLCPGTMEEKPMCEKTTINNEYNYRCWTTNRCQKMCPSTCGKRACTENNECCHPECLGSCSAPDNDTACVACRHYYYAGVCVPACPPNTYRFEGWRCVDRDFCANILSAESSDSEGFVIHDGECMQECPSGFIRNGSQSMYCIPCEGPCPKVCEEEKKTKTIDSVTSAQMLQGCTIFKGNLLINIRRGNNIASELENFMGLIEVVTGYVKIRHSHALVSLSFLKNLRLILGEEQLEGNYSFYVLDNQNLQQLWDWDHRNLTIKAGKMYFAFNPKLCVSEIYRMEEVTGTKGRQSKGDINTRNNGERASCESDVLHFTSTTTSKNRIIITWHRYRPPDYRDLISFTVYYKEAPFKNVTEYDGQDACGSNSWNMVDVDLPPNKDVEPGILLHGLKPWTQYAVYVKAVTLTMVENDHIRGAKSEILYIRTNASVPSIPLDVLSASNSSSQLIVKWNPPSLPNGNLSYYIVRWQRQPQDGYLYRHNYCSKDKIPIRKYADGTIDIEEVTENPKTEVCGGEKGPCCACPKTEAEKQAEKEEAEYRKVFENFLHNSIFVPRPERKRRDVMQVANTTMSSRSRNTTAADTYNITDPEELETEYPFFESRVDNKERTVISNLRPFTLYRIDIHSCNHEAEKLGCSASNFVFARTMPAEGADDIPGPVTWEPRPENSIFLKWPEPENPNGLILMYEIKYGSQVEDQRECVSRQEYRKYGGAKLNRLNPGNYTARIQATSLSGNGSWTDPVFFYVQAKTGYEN
Experiment: SPR (Biacore 8K) on captured hIGF1R-His, binder injected second (Analyte 2); competitor injected first (Analyte 1): Teprotumumab analog
Could you respond with only the numeric value?

For orientation, consider the following solved cases.
anti-IGF1R antibody 12A4 (antibody, V domains shown) VH: EVQLVQSGGGEIRPGGSLRLSCAASGFTFADYGMSWVRQAPGEGLEWVSEIDWTGGSKLYADSVKGRFTISRDNAKNSLFLQMNSLRAEDTALYYCVRDRGAVSPKYYYYGMDVWGQGTTVTVSS VL: EIVLTQSPSSLSASVGDRVTITCRASQGIRNDLGWYQQKPGKAPKRLIYAASRLQSGVPSRFSGSGSGTDFTLTISSLQPEDFATYYCLQHNSYPYTFGQGTKLEIK	0.01
anti-IGF1R antibody 10D1 (antibody, human IgG1, V domains shown) VH: QVQLQQSGGGVVRPGGSLRLSCAASGFTFADYGMSWVRQVPGKGLEWVSGINWNGGSTDYADSVKGRFTISRDNAKHSLYLQMNSLRAEDTAFYYCARDRGAVSRRYYYYGMDVWGLGTTVTVSS VL: AIQLTQSPSSLSASVGDRVTITCRASQDIRNDLGWYQLKPGKAPKRLIYAASRLQSGVPSGFSGSGSGTEFTLTISSLQPEDFATYYCLQHNSYPYTFGQGTKLEIK	0.03

Query block: Give binding ratio (Analyte 2 / Analyte 1) for anti-IGF1R antibody 12D1 (antibody, human IgG1, V domains shown) VH: QVQLVESGGGVVRPGGSLRLSCAASGFTFDDYGMSWVRQVPGKGLEWVSGINWNGGSTDYADSVKGRFTISREKAKNSLYLQMNSLRAEDTALYYCVRDRGAVTRRYYYYGMDVWGQGTTVTVSS VL: DIQMTQSPSSLSASVGDRVTITCRASQDIRNDLGWYQLKPGKAPKRLIYAASRLQSGVPSRFSGSGSGTEFTLTISSLQPEDFATYYCLQHNSYPYTFGQGTKLEIK
Result block: 0.01

Query block: Give binding ratio (Analyte 2 / Analyte 1) for anti-IGF1R antibody 10G1 (antibody, human IgG1, V domains shown) VH: QVQLVESGGGLVKPGGSLRLSCAASEFTFSDYYMSWIRQSPGKGLEWVSYISNSGSFTNYADSVKGRFTISRDNAKNSLYLQMNSLRAEDSAIYYCVRDQAPVTSKYYYYGMDVWGQGTTVTVSS VL: EIVLTQSPSSLSASVGDRVTITCRASQGIRNDFAWYQQKPGKAPKRLIYAASRLQRGVPSRFSGSGSGTEFTLTISSLQPEDFATYYCLQHNSYPYTFGQGTKLEIK
Result block: -0.03
